Where these numbers come from: patent US10030012B2

Biological target: human M4 receptor (Homo sapiens (Human))
Sequence (P08173 whole entry): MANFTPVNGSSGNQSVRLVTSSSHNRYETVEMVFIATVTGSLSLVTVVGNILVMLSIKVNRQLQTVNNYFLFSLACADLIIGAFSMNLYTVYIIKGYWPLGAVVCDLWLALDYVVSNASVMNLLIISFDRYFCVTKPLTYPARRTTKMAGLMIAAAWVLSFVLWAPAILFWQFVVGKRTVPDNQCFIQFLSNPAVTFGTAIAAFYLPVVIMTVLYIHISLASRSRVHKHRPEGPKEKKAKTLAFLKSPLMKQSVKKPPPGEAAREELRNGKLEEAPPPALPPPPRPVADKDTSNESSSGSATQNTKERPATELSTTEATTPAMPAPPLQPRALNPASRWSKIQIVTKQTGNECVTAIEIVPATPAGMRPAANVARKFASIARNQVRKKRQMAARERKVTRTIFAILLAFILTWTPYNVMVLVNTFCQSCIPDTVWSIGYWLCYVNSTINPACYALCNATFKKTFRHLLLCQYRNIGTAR
Assay: In vitro M4 functional assay (intracellular calcium, FLiPR Tetra)
Format: cell-based
Details: relative efficacy to an EC100 concentration of acetylcholine; read-out: M4 % RE
Short version: Emax at least 60% is true (1), less is false (0).

> print(dat)
                                   compound        cat
1  CCOC(=O)N1CCCC(N2CCC(c3nccn3C)CC2)CC1 (centres unmarked)   true (1)
2  CCOC(=O)N1CCCC(N2CCC(n3nccc3C#N)CC2)CC1 (centres unmarked)  false (0)
3  CCOC(=O)N1CCCC(N2CCC(n3ccc(C)n3)CC2)CC1 (centres unmarked)   true (1)
4  CCCn1ccnc1C1CCN(C2CCCN(C(=O)OCC)CC2)CC1 (centres unmarked)  false (0)
5  CCOC(=O)N1CCCC(N2CCC(c3cc(Cl)cnc3OC)CC2)CC1 (centres unmarked)   true (1)
